- target desc: T1, MMP2 (human pro-MMP2 activated with APMA) (human, UniProt P08253 30-660)
- T1 sequence (looked up): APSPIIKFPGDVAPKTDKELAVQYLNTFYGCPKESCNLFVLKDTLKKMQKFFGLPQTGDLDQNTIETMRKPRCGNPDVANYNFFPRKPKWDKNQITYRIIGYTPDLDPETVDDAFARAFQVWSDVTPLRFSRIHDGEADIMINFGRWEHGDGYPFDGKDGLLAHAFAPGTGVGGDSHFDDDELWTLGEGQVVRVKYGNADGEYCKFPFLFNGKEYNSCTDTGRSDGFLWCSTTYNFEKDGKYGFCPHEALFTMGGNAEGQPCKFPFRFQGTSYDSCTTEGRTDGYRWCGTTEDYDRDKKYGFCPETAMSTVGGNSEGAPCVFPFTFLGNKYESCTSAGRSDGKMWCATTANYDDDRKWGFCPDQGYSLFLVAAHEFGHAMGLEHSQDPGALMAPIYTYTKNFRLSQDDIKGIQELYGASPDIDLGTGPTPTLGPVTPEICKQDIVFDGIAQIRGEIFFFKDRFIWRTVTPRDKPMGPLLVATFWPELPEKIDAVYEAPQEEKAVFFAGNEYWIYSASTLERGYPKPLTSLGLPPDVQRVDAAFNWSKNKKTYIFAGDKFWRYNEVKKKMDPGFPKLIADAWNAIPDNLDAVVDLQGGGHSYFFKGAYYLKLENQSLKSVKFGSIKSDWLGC
- protocol details: cell-based or functional assay
Simple rule here: MMP2 IC50 less than 0.8 nM is Satisfied, otherwise Not satisfied.

Use these answered entries as a reference point.
- binder: "wild-type TIMP-3 (native human tissue inhibitor of metalloproteinase 3) (other) CTCSPSHPQDAFCNSDIVIRAKVVGKKLVKEGPFGTLVYTIKQMKMYRGFTKMPHVQYIHTEASESLCGLKLEVNKYQYLLTGRVYDGKMYTGLCNFVERWDQLTLSQRKGLNYRYHLGCNCKIKSCYYLPCFVTSKNECLWTDMLSNFGYPGYQSKHYACIRQKGGYCSWYRGWAPPDKSIINATDP"
  discrete label: "Satisfied"
- binder: "TIMP-3 mutein P56N, G58T (other) CTCSPSHPQDAFCNSDIVIRAKVVGKKLVKEGNFTTLVYTIKQMKMYRGFTKMPHVQYIHTEASESLCGLKLEVNKYQYLLTGRVYDGKMYTGLCNFVERWDQLTLSQRKGLNYRYHLGCNCKIKSCYYLPCFVTSKNECLWTDMLSNFGYPGYQSKHYACIRQKGGYCSWYRGWAPPDKSIINATDP"
  discrete label: "Not satisfied"
- binder: "TIMP-3 mutein F57N (other) CTCSPSHPQDAFCNSDIVIRAKVVGKKLVKEGPNGTLVYTIKQMKMYRGFTKMPHVQYIHTEASESLCGLKLEVNKYQYLLTGRVYDGKMYTGLCNFVERWDQLTLSQRKGLNYRYHLGCNCKIKSCYYLPCFVTSKNECLWTDMLSNFGYPGYQSKHYACIRQKGGYCSWYRGWAPPDKSIINATDP"
  discrete label: "Satisfied"

Next:
-- ask For TIMP-3 mutein K45S, F57N (other) CTCSPSHPQDAFCNSDIVIRASVVGKKLVKEGPNGTLVYTIKQMKMYRGFTKMPHVQYIHTEASESLCGLKLEVNKYQYLLTGRVYDGKMYTGLCNFVERWDQLTLSQRKGLNYRYHLGCNCKIKSCYYLPCFVTSKNECLWTDMLSNFGYPGYQSKHYACIRQKGGYCSWYRGWAPPDKSIINATDP , is the recorded MMP2 IC50 below the cut-off of 0.8 nM?
-- reply Satisfied

Provenance of the data: patent US20140274874A1
